Biological target: TNFα (Homo sapiens)
Experiment: TNF induced HEK-Blue assay (NF-kB-driven secreted alkaline phosphatase reporter)
Assay type: cell-based
Settings: TNFα 0.5 ng/mL, HEK-Blue-CD40L cells, 18 h; read-out: TNF induced HEK-Blue assay IC50 value
measuredQuantity: IC50

CCC(Nc1c(Cl)cnc2ccc(-c3cnc(N4CCNC(=O)C4)nc3)cc12)c1nc(C(N)=O)ccc1F (racemic)    < 1 µM
Cc1ccc(C)c(Nc2c(Cl)c(C)nc3ccc(-c4ccc(C(=O)O)nc4)cc23)c1    10 to 25 µM
Cc1nc2cc(F)c(-c3cnc(C(C)(C)O)nc3)cc2c(N[C@H](C)c2cc(C#N)ccc2F)c1Cl    < 1 µM
CC(Nc1c(Cl)cnc2ccc(-c3cnc(N4CCNC(=O)C4)nc3)cc12)c1nc(C(N)=O)ccc1F (single isomer, unassigned) [Example 25]    1 to 10 µM
C[C@@H](Nc1c(Cl)cnc2ccc(-c3cnc(C(C)(C)O)nc3)cc12)c1cc(CC(O)CO)ccc1F (mixture of isomers)    < 1 µM

Q) Dear colleague, I am looking for the recorded IC50 of the following compound: C[C@H](Nc1c(Cl)cnc2ccc(-c3cnc(C(C)(C)O)nc3)cc12)[C@H]1CCCN(C(N)=O)C1
A) 1 to 10 µM

Q) Try the compound C[C@@H](Nc1c(Cl)cnc2ccc(-c3cnc(C(C)(C)O)nc3)cc12)c1cc(N2CCNC2=O)ccc1F
A) < 1 µM

Q) Record: CC(Nc1c(Cl)cnc2ccc(-c3ccc(C(C)(C)O)cc3)cc12)c1cn(C)cn1 (racemic)
A) < 1 µM

Q) Same read-out for COc1ccc(F)c([C@@H](C)Nc2c(Cl)cnc3ccc(-c4cnc(C(C)(C)O)nc4)cc23)c1 ?
A) < 1 µM

Q) And what about the compound CC(Nc1c(Cl)cnc2ccc(-c3ccc(C(C)(C)O)cc3)cc12)c1cscn1 (racemic) ?
A) < 1 µM

====

Target: TNFα (Homo sapiens)
Test: TNF induced HEK-Blue assay (NF-kB-driven secreted alkaline phosphatase reporter)
Type: cell-based
Conditions: TNFα 0.5 ng/mL, HEK-Blue-CD40L cells, 18 h; read-out: TNF induced HEK-Blue assay IC50 value
measuredQuantity: IC50

Q) Which IC50 is reported for this compound? CCC(Nc1c(Cl)cnc2ccccc12)c1ccccc1F (stereo not shown)
A) 1000 to 10000 nM

Q) Same read-out for Cc1ccc(C)c(Nc2c(F)c(C)nc3ccc(-c4cnc(N5CCN(CC(=O)O)CC5)nc4)cc23)c1 ?
A) < 1000 nM

Q) Also, Cc1ccc(F)c([C@H](Nc2c(Cl)c(C)nc3ccc(-c4cnc(C(C)(C)O)nc4)cc23)C(F)F)c1 please.
A) < 1000 nM

Q) Next up: CC(C)(O)c1ncc(-c2ccc3ncc(Cl)c(NC(CC(F)(F)F)c4ccccc4)c3c2)cn1 (racemic)
A) < 1000 nM

Q) Note, next up: CCNCc1ccc(-c2ccc3ncc(Cl)c(N[C@H](C)c4ccccc4F)c3c2)cc1
A) 1000 to 10000 nM

Q) Let us now turn to CC(Nc1c(Cl)cnc2cc(F)c(-c3ccc(C(O)C4CC4)cc3)cc12)c1ccccc1F (stereo not shown) [Example 261]
A) < 1000 nM

Q) Now the same for COc1ccc(F)c([C@@H](C)Nc2ccnc3ccc(Cl)cc23)c1
A) 10000 to 25000 nM

Q) Follow-up item: C[C@@H](Nc1c(Cl)cnc2ccc(-c3cnc(C(C)(C)O)nc3)cc12)c1cc(C(=O)N(C)C)ccc1F
A) < 1000 nM

Q) Same thing, different compound: CC(Nc1c(Cl)cnc2cc(F)c(-c3cnc(C4(O)CCC(C(=O)O)CC4)nc3)cc12)c1ccccc1F (stereo not shown)
A) < 1000 nM

Q) Same again, this time with CN(Cc1c(Cl)cnc2ccc(-c3cnc(C(C)(C)O)nc3)cc12)c1ccccc1F
A) 1000 to 10000 nM

Q) Can you handle CC(Nc1c(Cl)cnc2cc(F)c(-c3cnc(C(O)CN4CCOCC4)cn3)cc12)c1ccccc1F (stereo not shown) [Example 275] next?
A) < 1000 nM

Q) Request: CCC(Nc1c(Cl)cnc2ccc(-c3cnc(C(C)(C)O)nc3)cc12)C1CCC1 (racemic)
A) < 1000 nM

Q) And the next one, Cc1nc2ccc(-c3cnc(C(C)(C)O)nc3)cc2c(N[C@@H](c2cc(C(N)CO)ccc2F)C(F)F)c1Cl (mixture of isomers) ?
A) < 1000 nM

====

Molecular target: TNFα (Homo sapiens, UniProt P01375)
Sequence (P01375 77-233 limits assumed): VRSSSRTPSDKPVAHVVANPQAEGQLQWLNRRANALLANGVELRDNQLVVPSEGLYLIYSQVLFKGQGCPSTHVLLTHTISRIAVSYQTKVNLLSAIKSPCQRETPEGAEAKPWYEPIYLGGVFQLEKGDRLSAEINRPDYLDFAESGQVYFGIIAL
Experiment: TNF induced HEK-Blue assay (NF-kB-driven secreted alkaline phosphatase reporter)
Format: cell-based
Conditions: TNFα 0.5 ng/mL, HEK-Blue-CD40L cells, 18 h; read-out: TNF induced HEK-Blue assay IC50 value
# reported IC50; entries follow

Consider the worked cases shown below.
CC(Nc1c(Cl)cnc2ccc(-c3ccc(C(C)(C)O)cc3)cc12)c1nccs1 (racemic) [Example 194]    < 1000 nM
Fc1ccc(Br)cc1CNc1c(Cl)cnc2ccccc12 [Example 516]    10000 to 25000 nM
C[C@@H](Nc1c(Cl)cnc2ccc(-c3ccc(C(N)CO)cc3)cc12)c1ccccc1F (stereo partly shown) [Example 100]    1000 to 10000 nM
CC(Nc1c(Cl)cnc2ccc(-c3ccc(C(C)(C)O)cc3)cc12)c1cnsc1 (racemic) [Example 172]    10000 to 25000 nM
Cc1nc2c(F)cc(-c3ccc(C(C)(C)O)cc3)cc2c(N[C@@H](c2ccccc2F)C(F)F)c1Cl [Example 305]    < 1000 nM
Cc1nc2ccc(-c3cnc(C(C)(C)O)nc3)cc2c(N[C@@H](c2cc(C#N)ccc2F)C(F)F)c1Cl [Example 380]    < 1000 nM

Q) Any idea what IC50 was measured for C[C@H](Nc1c(Cl)cnc2cnc(-c3cnc(N4CCN(CC(=O)O)CC4)nc3)cc12)c1ccccc1F (single isomer, unassigned) [Example 236] ?
A) 10000 to 25000 nM

====

Target: TNFα (Homo sapiens, UniProt P01375)
Test: TNF induced HEK-Blue assay (NF-kB-driven secreted alkaline phosphatase reporter)
Format: cell-based
Details: TNFα 0.5 ng/mL, HEK-Blue-CD40L cells, 18 h; read-out: TNF induced HEK-Blue assay IC50 value
measuredQuantity: IC50

Completed entries (count: 2):
C[C@@H](Nc1c(Cl)cnc2cnc(-c3cnc(N4CCN(CC(=O)O)CC4)nc3)cc12)c1ccccc1F (single isomer, unassigned)    10 to 25 µM
CC(C)(O)c1ncc(-c2ccc3ncc(Cl)c(NC(c4ccccc4)C(F)F)c3c2)cn1 (racemic)    < 1 µM

Field: next compound
Q) Item CC(Nc1c(Cl)cnc2ccc(-c3cnc(N4CCNC(=O)C4)nc3)cc12)c1nc(N)ccc1F (stereo not drawn) has what recorded IC50?
A) < 1 µM

====

We begin with a simple list: items and their reported pIC50.
Target: TNFα (Homo sapiens)
Test: TNF induced HEK-Blue assay (NF-kB-driven secreted alkaline phosphatase reporter)
Format: cell-based
Conditions: TNFα 0.5 ng/mL, HEK-Blue-CD40L cells, 18 h; read-out: TNF induced HEK-Blue assay IC50 value
Description: TNF or CD40L-Induced HEK-Blue Assay Test compounds serially diluted in DMSO were plated in an assay plate (LABCYTE, Cat. # LP-0200) at final concentrations ranging from 0.004 μM to 25 μM. […] Secreted alkaline phosphatase expression was measured using QUANTI-Blue™ (INVIVOGEN, Cat. Code rep-qb1) according to manufacturer's specifications and the assay plate was read on a PerkinElmer Envision at 620 nm. […]
pIC50: −log10 of the molar value.

CC(Nc1c(Cl)cnc2ccc(-c3ccc(C(C)(C)O)cc3)cc12)c1ccncc1 (racemic) [Example 176]    > 6.00
C[C@@H](Nc1c(Cl)cnc2ccc(-c3cnc(N4CCN([C@@H](CN)C(=O)O)CC4)nc3)cc12)c1ccccc1F [Example 94]    > 6.00
Cc1nc2ccc(-c3cnc(C(C)(C)O)nc3)cc2c(N[C@H](C)c2cc(C(C)(O)CO)ccc2F)c1Cl (mixture of isomers) [Example 403]    > 6.00
C[C@@H](Nc1c(Cl)cnc2cc(F)c(-c3cnc(C(C)(C)O)nc3)nc12)c1cccc(C(N)=O)c1 [Example 581]    4.60 to 5.00
C[C@@H](Nc1c(Cl)cnc2ccccc12)c1cc(-c2ccccc2C#N)ccc1F [Example 552]    > 6.00
CC(C)(O)c1ncc(-c2cc3c(N[C@@H](c4cc(C#N)ccc4F)C(F)F)c(Cl)cnc3cc2F)cn1 [Example 381]    > 6.00
CC(Nc1c(Cl)cnc2cc(F)c(-c3ccc(C(O)C4CC4)cc3)cc12)c1ccccc1F (centres unmarked) [Example 260]    > 6.00

Consider the record given below.
Q) Form field: reported pIC50 of CC(Nc1c(Cl)cnc2ccc(-c3ccc(C(C)(C)O)cc3)cc12)c1ccnn1C (racemic) [Example 195]
A) 4.60 to 5.00
